Reported IC50 for target or system fused TvG6PD::6PGL enzyme (Trichomonas vaginalis, UniProt A2EC78), by entry.
One number for each entry, in µM.

[
  {
    "structure": "O=C(COc1ccc(/C=C2\\SC(=O)NC2=O)cc1)NC1CCN(Cc2ccccc2)CC1",
    "assay-system": "fused TvG6PD::6PGL enzyme (Trichomonas vaginalis, UniProt A2EC78)",
    "IC50 [µM]": 260
  },
  {
    "structure": "COc1ccc(NC(=O)Nc2ncc([N+](=O)[O-])s2)cc1",
    "assay-system": "fused TvG6PD::6PGL enzyme (Trichomonas vaginalis, UniProt A2EC78)",
    "IC50 [µM]": 356
  },
  {
    "structure": "COc1cc(CCC(=O)O)ccc1OCc1ccc(-c2ccccc2C#N)cc1",
    "assay-system": "fused TvG6PD::6PGL enzyme (Trichomonas vaginalis, UniProt A2EC78)",
    "IC50 [µM]": 155
  }
]

Now consider the entry below.
Request body: readout IC50, system fused TvG6PD::6PGL enzyme (Trichomonas vaginalis, UniProt A2EC78), query O=C(Nc1ccc(Cl)cc1)Nc1ncc([N+](=O)[O-])s1 . Return the value. 93
